# experimental system: Voltage-gated potassium channel subunit beta-2 (Rattus norvegicus)
# assay protocol: inhibitors of rat Kvbeta2 reductase activity – biochemical, NADPH fluorescence, primary screen (AID 622);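 further: slope of raw intensity against log time taken from 70 to 1610 s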
# assay conditions: recombinant KvBeta, 4-cyanobenzaldehyde reduction, at 10 µM, active compounds read high
Activity calls are given as the source filed them.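 How the source made its calls: active means fluorescence slope higher than the sample average by over 3 SD (cut at about -0.22 in these data, passing the limit was not always enough); inactive means the rest.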
endpoint: fluorescence slope

Some compounds with known fluorescence slope results, for comparison:
INSERT INTO assay_data (compound, measurement) VALUES
  ('O=C(CN1CCN(Cc2ccccc2)CC1)NCC1COc2ccccc2O1 (stereo not given)', '-0.356 (inactive)'),
  ('COc1ccc(CCNC(=O)COc2ccc(S(=O)(=O)N3CCOCC3)cc2)cc1', '-0.32 (inactive)'),
  ('O=C(NCC1COc2ccccc2O1)c1ccc(NC(=O)c2ccco2)cc1 (stereo not given)', '-0.435 (inactive)');

Record lookup: for Voltage-gated potassium channel subunit beta-2 (Rattus norvegicus), what fluorescence slope belongs to O=C(CCn1c(=O)sc2ccccc21)NCc1ccc2c(c1)OCO2 ?
-0.353 (inactive)

Record lookup: for Voltage-gated potassium channel subunit beta-2 (Rattus norvegicus), what fluorescence slope belongs to O=C(COC(=O)c1ccc(Br)o1)Nc1ccc(S(=O)(=O)N2CCCC2)cc1 ?
-0.208 (inactive)

====

# assay protocol: reduction of polyQ htt aggregates in cells – imaging, exon1htt(103Q)mCFP cells, high-content imaging, primary screen (AID 483);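 further: compound exposure lasted 3 days before fixation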
# assay conditions: exon1htt(103Q)mCFP cell line, aggregate imaging, at 2 µM; active compounds read high
Catalogue of molecules with associated inhibition of aggregation
Provide the reading as a plain figure in %.

Some molecules with known inhibition of aggregation results, for comparison:
INSERT INTO results (molecule, endpoint, measurement) VALUES
  ('CCOC(=O)C1=C(c2ccccc2)N2CCS(=O)(=O)N=C2S1', 'inhibition of aggregation', -5.8),
  ('Cc1nc(SCC(=O)Nc2ccccc2C(F)(F)F)c2c(=O)n(C)c(=O)n(C)c2n1', 'inhibition of aggregation', 1.1),
  ('CC(=O)c1cccc(NC(=O)N2C3CCC2CC(O)(c2cccnc2)C3)c1 (stereo unspecified)', 'inhibition of aggregation', -21.4),
  ('O=C(Nc1ccccc1)N(CCCN1CCOCC1)Cc1cc2cc3c(cc2[nH]c1=O)OCCO3', 'inhibition of aggregation', 20.1),
  ('CC(=O)Nc1ccc(Cl)cc1C(=O)O', 'inhibition of aggregation', -13.3);

What does the record list as inhibition of aggregation for CC(=O)Nc1cccc(NC(=O)CSc2nn3c(=O)c(C)nnc3s2)c1 ?
9.9

====

# assay protocol: reduction of polyQ htt aggregates in cells – imaging, exon1htt(103Q)mCFP cells, high-content imaging, primary screen (AID 483);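 further: compound exposure lasted 3 days before fixation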
# assay conditions: exon1htt(103Q)mCFP cell line, aggregate imaging, at 2 µM; active compounds read high
Catalogue of compounds with associated inhibition of aggregation
Provide the reading as a plain figure in %.

Some compounds with known inhibition of aggregation results, for comparison:
INSERT INTO measurements (compound, measurement) VALUES
  ('CCC(=O)N1CCc2cc(Br)cc(S(=O)(=O)N3CCCCCC3)c21', 34.8),
  ('Cc1nnc(NC(=O)CSc2nnc(-c3ccc(S(=O)(=O)N4CCCC4)cc3)n2C)s1', 14.6),
  ('O=C(CN1C(=O)NC(Cc2ccccc2)C1=O)Nc1ccccc1 (stereo not given)', 8.9),
  ('CC(C)c1ccc(CNc2ccc(N3CCOCC3)cc2)cc1', -26.2),
  ('CN1CCN(c2nc3c(c(=O)[nH]c(=O)n3C)n2CCSc2nc3ccccc3s2)CC1', 25.5),
  ('O=C(NCc1cccnc1)c1ccc(Cl)c(Cl)c1', 25.4),
  ('COc1ccc(CC(=O)Nc2ccc(-c3nnc(-c4ccc(C)cc4)o3)cc2)cc1', -17.7),
  ('Cc1cccc(N(CC(=O)Nc2ccc(CC#N)cc2)S(C)(=O)=O)c1', -17.9);

What does the record list as inhibition of aggregation for Cc1cccc2cc(CN(Cc3nnnn3Cc3ccccc3)C3CCCC3)c(=O)[nH]c12 ?
-39.5

What does the record list as inhibition of aggregation for O=C(c1cnn2c(C(F)F)cc(-c3ccccc3)nc12)N1CCN2CCCC2C1 (stereo not given) ?
13
